The origin of these recorded values is paper PMC4081100.

Collected binding signal values appear next to each entry.
Biological target: GST-WRKY1(266-371) (Arabidopsis thaliana, UniProt Q9SI37 266-371)
Sequence (Q9SI37 266-371): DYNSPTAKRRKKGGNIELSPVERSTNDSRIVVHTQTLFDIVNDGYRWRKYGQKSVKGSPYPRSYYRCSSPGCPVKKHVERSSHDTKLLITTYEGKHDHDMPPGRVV
Experiment: universal protein binding microarray (PBM); high values mean tight binding
Details: protein: recombinant; tags: GST; dsDNA, one strand shown
Answer shape: numeric part, then the unit.

The cases that follow already have their binding signal on record.
GCTTGACC ... 0.482 E-score
TCTGACCA ... 0.456 E-score

Now let's try a different one.
Param readout= binding signal; system= GST-WRKY1(266-371) (Arabidopsis thaliana, UniProt Q9SI37 266-371); entry= TCCGGTCA ; returns value.
0.445 E-score

---

Target: GST-WRKY1(266-371) (Arabidopsis thaliana, UniProt Q9SI37 266-371)
Assay: universal protein binding microarray (PBM); high values mean tight binding
Conditions: protein: recombinant; tags: GST; dsDNA, one strand shown
Labelling field: enter criterion met if recorded binding signal is less than 0.4 E-score. Enter criterion not met if it equals or exceeds that cut-off.

Past entries and their recorded results:
GCAAGTCA ... criterion not met
ACGCTACT ... criterion met
GTCGTTGA ... criterion not met
GTCGCGTA ... criterion met
CCCTTGAC ... criterion not met

I'd appreciate it if you could check whether CCTGGTCA has binding signal smaller than 0.4 E-score.
criterion not met

Thanks! And ATGTCAAC ?
criterion not met

Thanks! And AGTCGTGC ?
criterion met

Thanks! And ATGGGTCA ?
criterion not met

---

Target: GST-ANAC092(1-285) full length (Arabidopsis thaliana, UniProt Q9FKA0 1-285)
Sequence: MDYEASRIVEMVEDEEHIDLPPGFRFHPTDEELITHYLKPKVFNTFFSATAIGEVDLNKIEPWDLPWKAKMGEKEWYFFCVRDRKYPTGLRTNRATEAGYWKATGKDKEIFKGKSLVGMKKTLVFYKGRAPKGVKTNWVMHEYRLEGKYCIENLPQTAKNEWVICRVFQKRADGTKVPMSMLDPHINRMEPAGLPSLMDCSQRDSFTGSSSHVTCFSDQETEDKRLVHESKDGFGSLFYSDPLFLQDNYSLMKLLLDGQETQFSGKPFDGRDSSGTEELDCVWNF
Test: universal protein binding microarray (PBM); high values mean tight binding
Conditions: protein: recombinant; tags: GST; chain copies: 2; dsDNA, one strand shown
Collected binding signal values appear next to each entry.

The cases that follow already have their binding signal on record.
CTACACGC ... 0.425 E-score
ACGTCACC ... 0.463 E-score
CACACGCC ... 0.428 E-score

// query binding signal value for entry CTACGCGA
0.177 E-score

Thanks! And GTCAATTA ?
0.159 E-score

Thanks! And ACGTTTTC ?
0.401 E-score

Thanks! And GTTAAGCA ?
0.153 E-score

Thanks! And TTACGGAA ?
0.354 E-score

Thanks! And ACGTTACC ?
0.467 E-score

Thanks! And ACACGGAA ?
0.458 E-score

Thanks! And GTACGGCA ?
0.439 E-score

---

Collected binding signal values appear next to each entry.
Molecular target: GST-SND1(1-203) (Arabidopsis thaliana, UniProt Q9LPI7 1-203)
Sequence: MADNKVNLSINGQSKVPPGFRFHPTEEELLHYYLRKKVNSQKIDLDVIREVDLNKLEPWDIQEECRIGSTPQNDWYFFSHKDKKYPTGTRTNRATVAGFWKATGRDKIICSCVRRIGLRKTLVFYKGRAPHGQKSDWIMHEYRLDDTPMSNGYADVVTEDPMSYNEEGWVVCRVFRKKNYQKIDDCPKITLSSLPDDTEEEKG
Experiment: universal protein binding microarray (PBM); transcription factors of Arabidopsis thaliana; high values mean tight binding
Conditions: protein: recombinant; tags: GST; chain copies: 2; dsDNA, one strand shown
Express it in E-score; write the number only.

The cases that follow already have their binding signal on record.
CTTTACGC ... 0.408
AAGCGTGT ... 0.186
GCTAAGGA ... 0.064
TTAAGGAA ... 0.39
GCGTGTCA ... 0.0867

// query binding signal value for entry CTAGGAAA
0.145

Thanks! And GTGACGTA ?
0.467

Thanks! And AGCACGCA ?
0.343

Thanks! And GTACGCTA ?
0.447
